# TARGET DESC: recombinant XPO1 (exportin 1/CRM1) (UniProt O14980 1-1071)
# Sequence (O14980 whole entry): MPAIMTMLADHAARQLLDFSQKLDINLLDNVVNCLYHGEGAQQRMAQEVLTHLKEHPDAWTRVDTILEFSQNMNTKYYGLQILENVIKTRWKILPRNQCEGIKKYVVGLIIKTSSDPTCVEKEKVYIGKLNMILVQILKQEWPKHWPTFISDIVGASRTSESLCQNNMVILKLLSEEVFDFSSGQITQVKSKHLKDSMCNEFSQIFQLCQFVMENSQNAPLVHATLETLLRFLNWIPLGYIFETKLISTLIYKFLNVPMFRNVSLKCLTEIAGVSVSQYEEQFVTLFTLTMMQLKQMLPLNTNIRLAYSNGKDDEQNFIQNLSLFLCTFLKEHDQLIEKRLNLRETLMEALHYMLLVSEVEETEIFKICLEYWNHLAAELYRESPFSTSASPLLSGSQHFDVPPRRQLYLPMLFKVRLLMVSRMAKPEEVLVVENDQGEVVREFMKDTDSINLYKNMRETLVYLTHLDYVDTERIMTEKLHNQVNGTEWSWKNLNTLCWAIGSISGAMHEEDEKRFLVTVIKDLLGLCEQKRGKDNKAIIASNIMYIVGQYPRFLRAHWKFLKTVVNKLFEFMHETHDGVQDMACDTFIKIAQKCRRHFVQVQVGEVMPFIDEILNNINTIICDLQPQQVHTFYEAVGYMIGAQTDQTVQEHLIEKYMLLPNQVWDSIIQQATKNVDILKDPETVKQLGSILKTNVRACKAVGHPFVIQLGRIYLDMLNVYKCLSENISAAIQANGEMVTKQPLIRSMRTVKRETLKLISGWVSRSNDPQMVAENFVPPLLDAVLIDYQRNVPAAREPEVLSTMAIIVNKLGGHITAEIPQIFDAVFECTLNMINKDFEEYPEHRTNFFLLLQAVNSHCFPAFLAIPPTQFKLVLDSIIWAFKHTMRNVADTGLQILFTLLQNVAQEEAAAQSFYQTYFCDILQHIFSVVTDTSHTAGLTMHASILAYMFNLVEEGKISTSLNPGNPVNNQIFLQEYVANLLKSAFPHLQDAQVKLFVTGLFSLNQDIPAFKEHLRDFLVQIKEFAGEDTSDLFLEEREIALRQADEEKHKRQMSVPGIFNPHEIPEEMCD
# ASSAY METHOD TEXT: ELISA; plates coated with synthetic peptide (10 µg/ml, carbonate buffer pH 9.6); increasing concentrations of recombinant NTF, 2 h, room temperature; anti-HIS detection; apparent Kd
# STATED CONDITIONS: both partners purified
pKd: −log10 of the molar value.
QUANTITY MEASURED: pKd

binder="LQLPPLERLTLRQIKIWFQNRRMKWKK (source: synthetic peptide (GL Biochem, HPLC >85%)) [HIV-1 Rev NES synthetic peptide (fused to penetratin)]" quantity_measured=pKd value_reported=6.94
binder="LILLTLSPHYKLFLARLIWWLQYFITRQIKIWFQNRRMKWKK (source: synthetic peptide (GL Biochem, HPLC >85%)) [NS2 NES synthetic peptide (fused to penetratin)]" quantity_measured=pKd value_reported=7.10
binder="LPGCSFSIFLLALLSCITVPVSARQIKIWFQNRRMKWKK (source: synthetic peptide (GL Biochem, HPLC >85%)) [Core NES 2 synthetic peptide (fused to penetratin)]" quantity_measured=pKd value_reported=7.02
binder="KVIDTLTCGFADLMGRQIKIWFQNRRMKWKK (source: synthetic peptide (GL Biochem, HPLC >85%)) [Core NES 1 synthetic peptide (fused to penetratin)]" quantity_measured=pKd value_reported=7.18
